Hi there, I'd appreciate the recorded kinase still bound, per cent of control for every entry that follows.
Molecular target: IKBKE (human) (UniProt Q14164)
Sequence (Q14164 whole entry, looked up): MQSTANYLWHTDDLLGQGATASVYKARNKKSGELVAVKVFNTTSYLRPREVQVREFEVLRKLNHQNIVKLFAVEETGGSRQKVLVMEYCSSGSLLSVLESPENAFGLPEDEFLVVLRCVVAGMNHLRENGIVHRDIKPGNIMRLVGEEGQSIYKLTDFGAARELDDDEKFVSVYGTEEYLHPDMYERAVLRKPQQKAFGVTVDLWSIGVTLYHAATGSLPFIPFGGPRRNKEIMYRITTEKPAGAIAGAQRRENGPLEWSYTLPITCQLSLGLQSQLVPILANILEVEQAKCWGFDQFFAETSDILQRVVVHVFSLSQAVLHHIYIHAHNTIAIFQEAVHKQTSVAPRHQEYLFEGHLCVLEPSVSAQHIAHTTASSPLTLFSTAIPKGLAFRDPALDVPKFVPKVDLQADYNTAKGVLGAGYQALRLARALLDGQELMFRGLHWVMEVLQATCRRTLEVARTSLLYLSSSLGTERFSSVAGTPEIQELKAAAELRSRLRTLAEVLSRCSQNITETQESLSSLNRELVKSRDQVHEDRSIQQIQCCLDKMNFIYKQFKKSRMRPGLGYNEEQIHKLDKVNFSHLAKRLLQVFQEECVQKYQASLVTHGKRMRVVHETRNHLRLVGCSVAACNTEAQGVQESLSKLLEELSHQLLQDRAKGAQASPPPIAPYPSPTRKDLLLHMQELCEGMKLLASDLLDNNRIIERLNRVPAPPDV
Assay: KINOMEscan competition binding
Details: compound 10.0 µM
Quick note: number first, unit second.

Examples with answers:
compound	kinase still bound, per cent of control
COc1cc(C(=O)NC2CCN(C)CC2)ccc1Nc1ncc2c(n1)N(C1CCCC1)C(C)CC(=O)N2C (stereo not given)	100%
O=C(NOC[C@H](O)CO)c1ccc(F)c(F)c1Nc1ccc(I)cc1F	100%
O=C(NC1CC1)c1cccc(-c2ccc3c(NC(=O)C4CC4)n[nH]c3c2)c1	100%
CCC(=O)N1CCN(c2ccc(-n3c(=O)ccc4cnc5ccc(-c6cnc7ccccc7c6)cc5c43)cc2C(F)(F)F)CC1	87%

Could you now consider this next compound?
Sample "COc1cc(N2CCN(C)CC2)ccc1Nc1nc(N)c(C(=O)c2c(Cl)cccc2Cl)s1" ; kinase still bound, per cent of control observed: 87%

---

Target: DCLK1 (human) (UniProt O15075)
Sequence (O15075 whole entry, looked up): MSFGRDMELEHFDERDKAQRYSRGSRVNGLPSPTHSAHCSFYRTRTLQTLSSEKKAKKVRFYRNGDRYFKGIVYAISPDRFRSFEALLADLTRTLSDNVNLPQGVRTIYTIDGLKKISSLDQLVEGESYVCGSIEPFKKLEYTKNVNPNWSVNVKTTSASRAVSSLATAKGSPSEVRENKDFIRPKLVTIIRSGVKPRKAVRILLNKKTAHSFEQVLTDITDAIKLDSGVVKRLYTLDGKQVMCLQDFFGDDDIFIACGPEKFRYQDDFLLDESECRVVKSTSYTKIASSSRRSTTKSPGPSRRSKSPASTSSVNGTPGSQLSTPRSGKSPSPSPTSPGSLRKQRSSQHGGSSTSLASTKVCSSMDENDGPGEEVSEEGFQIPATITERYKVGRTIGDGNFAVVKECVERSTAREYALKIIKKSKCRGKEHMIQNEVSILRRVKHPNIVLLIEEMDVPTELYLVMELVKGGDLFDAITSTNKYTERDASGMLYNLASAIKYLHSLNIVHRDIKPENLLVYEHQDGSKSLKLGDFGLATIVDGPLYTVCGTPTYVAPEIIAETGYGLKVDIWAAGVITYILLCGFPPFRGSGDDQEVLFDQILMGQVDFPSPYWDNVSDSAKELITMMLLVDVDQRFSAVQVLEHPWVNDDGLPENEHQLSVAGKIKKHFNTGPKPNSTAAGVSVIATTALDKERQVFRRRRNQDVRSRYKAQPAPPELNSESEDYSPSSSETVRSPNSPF
Assay: KINOMEscan competition binding
Settings: compound 10.0 µM
Under this convention, rule met denotes kinase still bound, per cent of control strictly below 30% and rule not met denotes kinase still bound, per cent of control at or above 30%.

input_smiles	study_target	class_name
COc1cc(N2CCN(C)CC2)ccc1Nc1nc(N)c(C(=O)c2c(Cl)cccc2Cl)s1	DCLK1 (human) (UniProt O15075)	rule met
O=C1Nc2ccc(I)cc2/C1=C/c1cc(Br)c(O)c(Br)c1	DCLK1 (human) (UniProt O15075)	rule not met
OCCCNc1cc(-c2ccnc(Nc3cccc(Cl)c3)n2)ccn1	DCLK1 (human) (UniProt O15075)	rule not met
CC[C@@H]1C(=O)N(C)c2cnc(Nc3ccc(C(=O)NC4CCN(C)CC4)cc3OC)nc2N1C1CCCC1	DCLK1 (human) (UniProt O15075)	rule met

Proceed to the following item.
Request: # check: kinase still bound, per cent of control < 30% for "Cn1c(=O)n(-c2ccc(C(C)(C)C#N)cc2)c2c3cc(-c4cnc5ccccc5c4)ccc3ncc21"
Result: rule not met

---

Biological target: TNIK (human)
Assay: KINOMEscan competition binding
Settings: compound 10.0 µM
Hi there, I'd appreciate the recorded kinase still bound, per cent of control for every entry that follows.
Quick note: number first, unit second.

Examples with answers:
input_smiles	experimental_value
Cc1ccc2nc(NCCN)c3ncc(C)n3c2c1	100%
OCCCNc1cc(-c2ccnc(Nc3cccc(Cl)c3)n2)ccn1	100%
C=CC(=O)Nc1cccc(Oc2nc(Nc3ccc(N4CCN(C)CC4)cc3OC)ncc2Cl)c1	100%
O=C(NC1CC1)c1cccc(-c2ccc3c(NC(=O)C4CC4)n[nH]c3c2)c1	25%
C=CC(=O)Nc1cc(NC(=O)c2ccc(C)c(NC(=O)c3ccno3)c2)cc(C(F)(F)F)c1	100%
Cc1ccc(NC(=O)c2cccc(C(C)(C)C#N)c2)cc1Nc1ccc2ncn(C)c(=O)c2c1	3.4%

Could you now consider this next molecule?
Sample "Cc1cc([C@@H](C)Nc2ccccc2C(=O)O)c2nc(N3CCOCC3)cc(=O)n2c1" ; kinase still bound, per cent of control observed: 98%

---

Biological target: CDC42BPA (human)
Test: KINOMEscan competition binding
Conditions: compound 10.0 µM
measure: kinase still bound, per cent of control (%)
One number for each entry, in %.

Examples with answers:
compound	unit_of_measure	kinase still bound, per cent of control
C[C@@H](Oc1cc(-n2cnc3ccc(CN4CCN(C)CC4)cc32)sc1C(N)=O)c1ccccc1C(F)(F)F	%	95
C=CC(=O)Nc1cccc(Oc2nc(Nc3ccc(N4CCN(C)CC4)cc3OC)ncc2Cl)c1	%	100
Cc1ccc(C(=O)Nc2cccc(C(F)(F)F)c2)cc1Nc1cncc(C(N)=O)c1	%	100
CC[C@@H]1C(=O)N(C)c2cnc(Nc3ccc(C(=O)NC4CCN(C)CC4)cc3OC)nc2N1C1CCCC1	%	100
OCCCNc1cc(-c2ccnc(Nc3cccc(Cl)c3)n2)ccn1	%	100
CCCS(=O)(=O)Nc1ccc(F)c(C(=O)c2c[nH]c3ncc(-c4ccc(Cl)cc4)cc23)c1F	%	80
CCN1CCN(Cc2ccc(Nc3ncc4c(n3)N(C)c3ccccc3C(=O)N4C)cc2C(F)(F)F)CC1	%	70
CCOc1cc2ncc(C#N)c(Nc3ccc(OCc4ccccn4)c(Cl)c3)c2cc1NC(=O)/C=C/CN(C)C	%	91
Cc1ccc(NC(=O)c2cccc(C(C)(C)C#N)c2)cc1Nc1ccc2ncn(C)c(=O)c2c1	%	100
Nc1ccc(-c2ccc3ncc4ccc(=O)n(-c5cccc(C(F)(F)F)c5)c4c3c2)cn1	%	99

Quick request: kinase still bound, per cent of control for each listed item, please.
1. COc1cc(C(=O)NC2CCN(C)CC2)ccc1Nc1ncc2c(n1)N(C1CCCC1)CCC(=O)N2C(C)C
2. COc1cc(C(=O)NC2CCN(C)CC2)ccc1Nc1ncc2c(n1)N(C1CCCC1)C(C)CC(=O)N2C (stereo not drawn)
3. C=CC(=O)Nc1cccc(Nc2nc(N[C@H]3CC[C@H](N(C)C)CC3)nc3c2ncn3C(C)C)c1

Result:
1: 100; 2: 100; 3: 82

---

Hi there, I'd appreciate the recorded kinase still bound, per cent of control for every entry that follows.
Target: PLK2 (human) (UniProt Q9NYY3)
Sequence (Q9NYY3 whole entry, looked up): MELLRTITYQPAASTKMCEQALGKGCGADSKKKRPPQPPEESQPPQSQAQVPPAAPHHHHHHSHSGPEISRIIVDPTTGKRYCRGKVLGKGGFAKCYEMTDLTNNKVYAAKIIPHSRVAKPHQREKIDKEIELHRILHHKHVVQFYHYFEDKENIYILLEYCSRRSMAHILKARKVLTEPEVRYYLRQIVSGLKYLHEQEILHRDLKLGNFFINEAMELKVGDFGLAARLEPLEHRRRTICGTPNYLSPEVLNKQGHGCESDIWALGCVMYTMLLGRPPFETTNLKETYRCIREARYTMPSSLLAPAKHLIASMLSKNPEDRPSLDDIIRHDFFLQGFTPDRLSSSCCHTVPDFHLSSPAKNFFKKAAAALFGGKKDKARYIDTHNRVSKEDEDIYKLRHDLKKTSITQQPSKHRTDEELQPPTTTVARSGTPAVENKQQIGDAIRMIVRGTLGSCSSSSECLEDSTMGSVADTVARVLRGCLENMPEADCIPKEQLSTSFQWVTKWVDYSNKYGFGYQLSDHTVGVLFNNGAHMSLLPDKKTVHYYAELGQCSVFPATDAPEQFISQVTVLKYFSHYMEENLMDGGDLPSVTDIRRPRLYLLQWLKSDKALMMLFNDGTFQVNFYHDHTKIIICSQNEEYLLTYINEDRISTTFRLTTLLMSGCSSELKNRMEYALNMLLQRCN
Experiment: KINOMEscan competition binding
Conditions: compound 10.0 µM
Give bare numbers, in %.

Quick request: kinase still bound, per cent of control for each listed item, please.
1. COc1cc(C(=O)NC2CCN(C)CC2)ccc1Nc1ncc2c(n1)N(C1CCCC1)CCC(=O)N2C(C)C
2. C=CC(=O)Nc1cccc(Nc2nc(N[C@H]3CC[C@H](N(C)C)CC3)nc3c2ncn3C(C)C)c1

Result:
100
52

Quick request: kinase still bound, per cent of control for each listed item, please.
1. CCC(=O)N1CCN(c2ccc(-n3c(=O)ccc4cnc5ccc(-c6cnc7ccccc7c6)cc5c43)cc2C(F)(F)F)CC1
2. Cn1c(=O)n(-c2ccc(C(C)(C)C#N)cc2)c2c3cc(-c4cnc5ccccc5c4)ccc3ncc21
3. CCCS(=O)(=O)Nc1ccc(F)c(C(=O)c2c[nH]c3ncc(-c4ccc(Cl)cc4)cc23)c1F
4. O=C1Nc2ccc(I)cc2/C1=C/c1cc(Br)c(O)c(Br)c1
5. CN(C)C/C=C/C(=O)Nc1cccc(Nc2ncc3c(n2)N(C)c2ccccc2C(=O)N3C)c1
6. OCCCNc1cc(-c2ccnc(Nc3cccc(Cl)c3)n2)ccn1

Result:
1. 85
2. 100
3. 97
4. 71
5. 37
6. 100

---

Hi there, I'd appreciate the recorded kinase still bound, per cent of control for every entry that follows.
Target: CSF1R (human) (UniProt P07333)
Sequence (P07333 whole entry, looked up): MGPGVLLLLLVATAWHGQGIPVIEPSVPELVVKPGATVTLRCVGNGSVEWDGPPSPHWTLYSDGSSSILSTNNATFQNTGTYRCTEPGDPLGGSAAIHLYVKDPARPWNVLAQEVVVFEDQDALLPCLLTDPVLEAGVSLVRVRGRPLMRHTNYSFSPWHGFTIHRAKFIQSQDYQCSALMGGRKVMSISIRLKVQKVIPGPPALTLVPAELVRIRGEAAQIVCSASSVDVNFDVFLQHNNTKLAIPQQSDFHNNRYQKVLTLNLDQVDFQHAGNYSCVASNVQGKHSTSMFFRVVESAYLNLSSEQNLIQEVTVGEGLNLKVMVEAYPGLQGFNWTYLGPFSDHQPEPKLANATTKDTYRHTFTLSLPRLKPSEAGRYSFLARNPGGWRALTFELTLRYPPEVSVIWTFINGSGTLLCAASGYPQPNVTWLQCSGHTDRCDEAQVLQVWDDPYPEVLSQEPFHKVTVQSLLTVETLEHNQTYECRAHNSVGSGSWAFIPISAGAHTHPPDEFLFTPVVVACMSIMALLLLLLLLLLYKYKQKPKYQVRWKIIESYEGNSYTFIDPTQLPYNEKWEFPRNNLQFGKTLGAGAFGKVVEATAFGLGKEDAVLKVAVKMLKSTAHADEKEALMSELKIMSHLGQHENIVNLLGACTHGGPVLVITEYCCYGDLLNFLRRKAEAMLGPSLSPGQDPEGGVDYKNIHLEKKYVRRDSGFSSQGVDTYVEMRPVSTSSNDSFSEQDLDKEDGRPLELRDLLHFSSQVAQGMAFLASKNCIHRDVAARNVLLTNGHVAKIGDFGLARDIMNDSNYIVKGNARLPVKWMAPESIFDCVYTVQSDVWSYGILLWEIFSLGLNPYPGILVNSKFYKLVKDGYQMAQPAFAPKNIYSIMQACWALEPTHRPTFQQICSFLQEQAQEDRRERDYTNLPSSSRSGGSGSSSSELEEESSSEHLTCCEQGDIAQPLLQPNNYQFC
Assay: KINOMEscan competition binding
Conditions: compound 10.0 µM
One number for each entry, in %.

input_smiles	unit_of_measure	experimental_value
Cn1c(=O)n(-c2ccc(C(C)(C)C#N)cc2)c2c3cc(-c4cnc5ccccc5c4)ccc3ncc21	%	100
COc1cc(C(=O)NC2CCN(C)CC2)ccc1Nc1ncc2c(n1)N(C1CCCC1)CCC(=O)N2C(C)C	%	100
C[C@@H](Oc1cc(-n2cnc3ccc(CN4CCN(C)CC4)cc32)sc1C(N)=O)c1ccccc1C(F)(F)F	%	77

Quick request: kinase still bound, per cent of control for each listed item, please.
1. CCC(=O)N1CCN(c2ccc(-n3c(=O)ccc4cnc5ccc(-c6cnc7ccccc7c6)cc5c43)cc2C(F)(F)F)CC1
2. OCCCNc1cc(-c2ccnc(Nc3cccc(Cl)c3)n2)ccn1

Result:
1. 24
2. 100

Quick request: kinase still bound, per cent of control for each listed item, please.
1. Cc1ccc(NC(=O)c2cccc(C(C)(C)C#N)c2)cc1Nc1ccc2ncn(C)c(=O)c2c1
2. C=CC(=O)Nc1cccc(Oc2nc(Nc3ccc(N4CCN(C)CC4)cc3OC)ncc2Cl)c1
3. COc1cc(N2CCN(C)CC2)ccc1Nc1nc(N)c(C(=O)c2c(Cl)cccc2Cl)s1

Result:
1. 0.1
2. 14
3. 67

---

Test system: FLT3 (human), P36888 [ITD]
Sequence (P36888 whole entry, looked up, change not shown): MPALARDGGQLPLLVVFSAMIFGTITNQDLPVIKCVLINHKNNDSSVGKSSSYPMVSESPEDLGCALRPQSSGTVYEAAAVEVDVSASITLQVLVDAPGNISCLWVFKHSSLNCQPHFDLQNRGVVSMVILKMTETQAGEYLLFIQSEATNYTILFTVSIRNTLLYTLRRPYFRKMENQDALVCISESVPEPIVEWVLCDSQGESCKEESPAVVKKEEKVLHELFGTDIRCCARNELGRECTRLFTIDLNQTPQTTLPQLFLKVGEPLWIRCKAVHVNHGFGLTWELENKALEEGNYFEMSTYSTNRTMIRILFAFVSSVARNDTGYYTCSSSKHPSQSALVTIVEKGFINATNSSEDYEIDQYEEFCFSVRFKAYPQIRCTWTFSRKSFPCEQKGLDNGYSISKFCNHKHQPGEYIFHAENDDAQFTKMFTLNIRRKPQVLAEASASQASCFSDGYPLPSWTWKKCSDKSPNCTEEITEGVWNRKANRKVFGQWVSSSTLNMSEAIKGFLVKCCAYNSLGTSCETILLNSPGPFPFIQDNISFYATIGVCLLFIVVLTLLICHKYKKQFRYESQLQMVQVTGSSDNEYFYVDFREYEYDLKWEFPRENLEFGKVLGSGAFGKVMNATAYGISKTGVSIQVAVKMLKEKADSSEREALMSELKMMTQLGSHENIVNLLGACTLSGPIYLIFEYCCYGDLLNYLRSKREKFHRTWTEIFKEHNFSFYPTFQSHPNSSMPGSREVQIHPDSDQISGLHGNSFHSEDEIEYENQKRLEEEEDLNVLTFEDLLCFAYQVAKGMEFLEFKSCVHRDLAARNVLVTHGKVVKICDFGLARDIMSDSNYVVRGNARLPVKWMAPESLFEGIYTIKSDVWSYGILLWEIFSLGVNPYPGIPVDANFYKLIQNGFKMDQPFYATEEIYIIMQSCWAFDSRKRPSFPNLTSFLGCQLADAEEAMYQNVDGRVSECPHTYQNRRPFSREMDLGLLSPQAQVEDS
Experiment: KINOMEscan competition binding
Conditions: compound 10.0 µM
measure: kinase still bound, per cent of control (%)
One number for each entry, in %.

Quick request: kinase still bound, per cent of control for each listed item, please.
1. CCOc1cc2ncc(C#N)c(Nc3ccc(OCc4ccccn4)c(Cl)c3)c2cc1NC(=O)/C=C/CN(C)C
2. O=C1NC(=O)/C(=C/c2ccc3nccc(-c4ccncc4)c3c2)S1
3. COc1cc(C)c(Sc2cnc(NC(=O)c3ccc(CNC(C)C(C)C)cc3)s2)cc1C(=O)N1CCN(C(C)=O)CC1 (stereo unspecified)
4. C=CC(=O)Nc1cccc(Nc2nc(N[C@H]3CC[C@H](N(C)C)CC3)nc3c2ncn3C(C)C)c1
5. COc1cc(C(=O)NC2CCN(C)CC2)ccc1Nc1ncc2c(n1)N(C1CCCC1)C(C)CC(=O)N2C (stereo unspecified)
6. Cc1cc([C@@H](C)Nc2ccccc2C(=O)O)c2nc(N3CCOCC3)cc(=O)n2c1
7. NC(=O)Nc1cc(-c2cccc(F)c2)sc1C(=O)N[C@@H]1CCCNC1
8. Cc1ccc(C(=O)Nc2cccc(C(F)(F)F)c2)cc1Nc1cncc(C(N)=O)c1

Result:
1. 86
2. 47
3. 100
4. 1
5. 100
6. 53
7. 0
8. 100

Origin of the recorded values: the kinase profiling compilation of Christmann-Franck et al. (2016)
